Each entry below carries its reported one-hybrid fitness for binding parS DNA.
B1: Caulobacter ParB omega fusion; a variant is named by its letters at X, in order, B8GW30 (parent)
chain: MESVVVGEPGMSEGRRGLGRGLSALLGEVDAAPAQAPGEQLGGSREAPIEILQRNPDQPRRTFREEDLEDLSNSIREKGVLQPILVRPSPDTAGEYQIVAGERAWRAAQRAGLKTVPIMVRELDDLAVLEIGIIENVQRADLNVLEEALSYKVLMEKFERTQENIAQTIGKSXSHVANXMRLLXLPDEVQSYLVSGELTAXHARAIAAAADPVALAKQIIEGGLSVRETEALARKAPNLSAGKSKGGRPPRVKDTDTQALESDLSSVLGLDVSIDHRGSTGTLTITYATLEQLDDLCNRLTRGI

Variants of: B1
Test details: one-hybrid fitness for binding parS DNA (scaled: cognate 1, non-cognate 0); higher = stronger binding
Run parameters: with parS DNA site
Over roughly 81,000 sequences, “one-hybrid fitness for binding parS DNA” has its median near -0.17; the highest 2% begin near 0.51. Only a selection was taken, and the highest values are over-represented in it overall.

{"columns": ["Mutation", "Bound operator", "one-hybrid fitness for binding parS DNA"],
 "data": [
  ["IKCR", "≤", 0.2],
  ["YQCG", "≤", 0.2],
  ["RRHD", "≤", 0.2],
  ["RVYG", "=", 1.02],
  ["RWTF", "≤", 0.2],
  ["RRHN", "=", 0.689],
  ["RWTN", "=", 0.338],
  ["RVHK", "≤", 0.2],
  ["RLEN", "=", 0.4],
  ["RFEG", "=", 0.731],
  ["RWTH", "≤", 0.2],
  ["AATS", "≤", 0.2],
  ["RRHK", "≤", 0.2],
  ["RWTC", "=", 0.79],
  ["QMYC", "≤", 0.2],
  ["DCMT", "≤", 0.2],
  ["DKAA", "≤", 0.2],
  ["HAMN", "≤", 0.2],
  ["RVYN", "=", 0.46],
  ["RWTS", "=", 0.956],
  ["RRHS", "=", 0.645],
  ["RHPC", "=", 0.367],
  ["RVCF", "=", 0.249],
  ["RLEG", "=", 0.925],
  ["IPAC", "≤", 0.2],
  ["RWTY", "=", 0.37],
  ["RVHG", "=", 1.03],
  ["RRHH", "≤", 0.2],
  ["ARMN", "≤", 0.2],
  ["DFEG", "≤", 0.2],
  ["RHIC", "=", 0.651],
  ["RVRF", "=", 0.266],
  ["RVYP", "=", 0.213],
  ["NKAA", "≤", 0.2],
  ["GRFC", "≤", 0.2],
  ["RWTD", "≤", 0.2],
  ["LAGW", "≤", 0.2],
  ["RVRM", "=", 0.392],
  ["YPGG", "≤", 0.2],
  ["KMPV", "≤", 0.2],
  ["REEG", "≤", 0.2],
  ["RVCR", "≤", 0.2],
  ["FFHG", "≤", 0.2],
  ["RGEG", "=", 0.474],
  ["HTWT", "≤", 0.2],
  ["SPHY", "≤", 0.2]
]}

The measurements presented in this section are drawn from a collection of fitness landscapes (doi:10.1016/j.celrep.2020.107928).
